Each recorded value in this set is attributed to ChEMBL document CHEMBL1142762.

Target: 5-hydroxytryptamine receptor 2B (Homo sapiens, UniProt P41595)
Sequence (P41595 whole entry): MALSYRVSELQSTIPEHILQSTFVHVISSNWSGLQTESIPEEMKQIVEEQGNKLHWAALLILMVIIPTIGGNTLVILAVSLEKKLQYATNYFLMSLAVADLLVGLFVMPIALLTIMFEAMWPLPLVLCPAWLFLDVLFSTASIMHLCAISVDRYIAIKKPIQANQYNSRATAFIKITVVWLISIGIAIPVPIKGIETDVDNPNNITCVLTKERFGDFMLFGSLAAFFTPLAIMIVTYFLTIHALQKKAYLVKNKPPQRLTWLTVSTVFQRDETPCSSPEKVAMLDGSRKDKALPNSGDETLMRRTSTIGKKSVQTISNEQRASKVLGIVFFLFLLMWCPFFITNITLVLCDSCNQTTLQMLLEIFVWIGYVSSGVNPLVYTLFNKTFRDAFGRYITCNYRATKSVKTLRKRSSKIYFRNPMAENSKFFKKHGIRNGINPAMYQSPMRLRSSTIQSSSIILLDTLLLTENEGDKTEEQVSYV
Assay: Binding affinity toward 5-HT2B receptor evaluated by displacement of [3H]5-HT radioligand
pKi: −log10 of the molar value.
reportedMetric: pKi

{"columns": ["compound", "studySystem", "reportedMetric", "observed"],
 "data": [
  ["CC(=O)Nc1ccc2c(c1)N1[C@@H](CNC[C@H]1C)C2", "5-hydroxytryptamine receptor 2B (Homo sapiens, UniProt P41595)", "pKi", 6.02],
  ["Cc1ccc2c(c1C)N1[C@@H](CNC[C@H]1C)C2", "5-hydroxytryptamine receptor 2B (Homo sapiens, UniProt P41595)", "pKi", 7.89],
  ["Cc1c(Cl)ccc2c1N1CCNC[C@@H]1C2", "5-hydroxytryptamine receptor 2B (Homo sapiens, UniProt P41595)", "pKi", 6.85],
  ["C[C@@H]1CNC[C@H]2Cc3ccc(C#N)cc3N21", "5-hydroxytryptamine receptor 2B (Homo sapiens, UniProt P41595)", "pKi", 7.05],
  ["C[C@@H]1CNC[C@@H]2Cc3ccccc3N21 (stereo in doubt; 7)", "5-hydroxytryptamine receptor 2B (Homo sapiens, UniProt P41595)", "pKi", 6.68],
  ["C[C@@H]1CNC[C@H]2Cc3ccc(CO)cc3N21", "5-hydroxytryptamine receptor 2B (Homo sapiens, UniProt P41595)", "pKi", 6.60],
  ["Cc1ccc2c(c1C)N1[C@H](CNC[C@H]1C)C2", "5-hydroxytryptamine receptor 2B (Homo sapiens, UniProt P41595)", "pKi", 7.17],
  ["Cc1c(Cl)ccc2c1N1[C@H](CNC[C@H]1C)C2", "5-hydroxytryptamine receptor 2B (Homo sapiens, UniProt P41595)", "pKi", 7.72],
  ["Cc1cccc2c1N1[C@@H](CNC[C@H]1C)C2", "5-hydroxytryptamine receptor 2B (Homo sapiens, UniProt P41595)", "pKi", 7.23],
  ["Cc1ccc2c(c1)N1[C@@H](CNC[C@H]1C)C2", "5-hydroxytryptamine receptor 2B (Homo sapiens, UniProt P41595)", "pKi", 7.68],
  ["Cc1c(Cl)ccc2c1N1[C@@H](CNC[C@H]1C)C2", "5-hydroxytryptamine receptor 2B (Homo sapiens, UniProt P41595)", "pKi", 8.49],
  ["C[C@@H]1CNC[C@@H]2Cc3ccccc3N21 (stereo in doubt; 8)", "5-hydroxytryptamine receptor 2B (Homo sapiens, UniProt P41595)", "pKi", 6.80]
]}

* * *

Target: 5-hydroxytryptamine receptor 2C (Homo sapiens) (UniProt P28335)
Sequence (P28335 whole entry): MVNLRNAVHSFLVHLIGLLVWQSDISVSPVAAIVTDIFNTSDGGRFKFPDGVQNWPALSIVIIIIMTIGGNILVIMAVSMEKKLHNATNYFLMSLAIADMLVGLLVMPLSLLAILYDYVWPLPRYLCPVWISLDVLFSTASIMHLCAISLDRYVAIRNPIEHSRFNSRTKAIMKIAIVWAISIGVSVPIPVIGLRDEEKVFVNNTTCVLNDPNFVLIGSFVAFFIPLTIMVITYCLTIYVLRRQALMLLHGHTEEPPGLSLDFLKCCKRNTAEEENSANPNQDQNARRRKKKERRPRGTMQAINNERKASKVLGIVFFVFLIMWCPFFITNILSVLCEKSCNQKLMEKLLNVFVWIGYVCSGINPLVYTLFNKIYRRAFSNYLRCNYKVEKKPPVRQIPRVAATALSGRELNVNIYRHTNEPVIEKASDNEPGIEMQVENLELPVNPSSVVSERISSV
Assay: Relative efficacy toward 5-HT2C receptor
reportedMetric: Efficacy

{"columns": ["compound", "reportedMetric", "observed"],
 "data": [
  ["C[C@@H]1CNC[C@H]2Cc3ccc(C(F)(F)F)cc3N21", "Efficacy", "94%"],
  ["CC(=O)Nc1ccc2c(c1)N1[C@@H](CNC[C@H]1C)C2", "Efficacy", "24%"],
  ["C[C@@H]1CNC[C@@H]2Cc3ccccc3N21 (stereo in doubt; 7)", "Efficacy", "94%"],
  ["Cc1ccc2c(c1C)N1[C@@H](CNC[C@H]1C)C2", "Efficacy", "96%"],
  ["C[C@H]1CNC[C@@H]2Cc3ccccc3N21", "Efficacy", "62%"],
  ["C[C@@H]1CNC[C@@H]2Cc3ccccc3N21 (stereo in doubt; 8)", "Efficacy", "87%"],
  ["Cc1cccc2c1N1[C@@H](CNC[C@H]1C)C2", "Efficacy", "100%"]
]}
